System: Mycobacterium kansasii
assay notes: Antimycobacterial activity against Mycobacterium kansasii 235/80 after 7 days
Type: functional
stated conditions: 235/80, 168 h
outcome measure: log10 MIC (log10 of the value in µM)

>  <smiles record>
CCCCCCCCCCCCNC(=O)NNC(=O)c1ccncc1

>  <target of assay>
Mycobacterium kansasii

>  <log10 MIC>
1.51

$$$$
>  <smiles record>
CCCCCCCCCCNc1nnc(-c2ccncc2)o1

>  <target of assay>
Mycobacterium kansasii

>  <log10 MIC>
0.90

$$$$
>  <smiles record>
CCCCNC(=O)NNC(=O)c1ccncc1

>  <target of assay>
Mycobacterium kansasii

>  <log10 MIC>
2.70

$$$$
>  <smiles record>
CNC(=O)NNC(=O)c1ccncc1

>  <target of assay>
Mycobacterium kansasii

>  <log10 MIC>
3.00

$$$$
>  <smiles record>
CCCCCCCCCCCCCCNc1nnc(-c2ccncc2)o1

>  <target of assay>
Mycobacterium kansasii

>  <log10 MIC>
2.40

$$$$
>  <smiles record>
CCCCCCCCNc1nnc(-c2ccncc2)o1

>  <target of assay>
Mycobacterium kansasii

>  <log10 MIC>
1.80

$$$$
>  <smiles record>
CCCCCCCCCCNC(=O)NNC(=O)c1ccncc1

>  <target of assay>
Mycobacterium kansasii

>  <log10 MIC>
1.51

$$$$
>  <smiles record>
CCCCCCCCCCCCCNc1nnc(-c2ccncc2)o1

>  <target of assay>
Mycobacterium kansasii

>  <log10 MIC>
2.40

$$$$
>  <smiles record>
CCCCCCCCCCCCCCCCCCNC(=O)NNC(=O)c1ccncc1

>  <target of assay>
Mycobacterium kansasii

>  <log10 MIC>
2.40

$$$$
>  <smiles record>
CCCCCCCCCCCCCCCNc1nnc(-c2ccncc2)o1

>  <target of assay>
Mycobacterium kansasii

>  <log10 MIC>
1.80

$$$$
>  <smiles record>
CCCCCCCCCCCCCCCCNc1nnc(-c2ccncc2)o1

>  <target of assay>
Mycobacterium kansasii

>  <log10 MIC>
2.40

$$$$
>  <smiles record>
CCCNc1nnc(-c2ccncc2)o1

>  <target of assay>
Mycobacterium kansasii

>  <log10 MIC>
2.70

$$$$

###

# key: entry, value: MIC
System: Mycobacterium avium
assay notes: Antimycobacterial activity against INH/RIF/OFX resistant Mycobacterium avium 330/88 after 14 days
Assay type: functional
stated conditions: 330/88, 336 h
outcome measure: MIC (µM)

>  <smiles record>
CNC(=O)NNC(=O)c1ccncc1

>  <target of assay>
Mycobacterium avium

>  <outcome measure>
MIC

>  <value prefix>
>

>  <obs value>
1000

$$$$
>  <smiles record>
CNc1nnc(-c2ccncc2)o1

>  <target of assay>
Mycobacterium avium

>  <outcome measure>
MIC

>  <value prefix>
>

>  <obs value>
1000

$$$$
>  <smiles record>
CCCCCCCCCCCCCCCCNc1nnc(-c2ccncc2)o1

>  <target of assay>
Mycobacterium avium

>  <outcome measure>
MIC

>  <value prefix>
=

>  <obs value>
250

$$$$
>  <smiles record>
CCCCCCCNC(=O)NNC(=O)c1ccncc1

>  <target of assay>
Mycobacterium avium

>  <outcome measure>
MIC

>  <value prefix>
=

>  <obs value>
250

$$$$
>  <smiles record>
CCCCCCCCCCNC(=O)NNC(=O)c1ccncc1

>  <target of assay>
Mycobacterium avium

>  <outcome measure>
MIC

>  <value prefix>
=

>  <obs value>
500

$$$$
>  <smiles record>
CCCCCCCCCNc1nnc(-c2ccncc2)o1

>  <target of assay>
Mycobacterium avium

>  <outcome measure>
MIC

>  <value prefix>
=

>  <obs value>
125

$$$$
>  <smiles record>
CCCCCCCCCCCCCCNC(=O)NNC(=O)c1ccncc1

>  <target of assay>
Mycobacterium avium

>  <outcome measure>
MIC

>  <value prefix>
=

>  <obs value>
125

$$$$
>  <smiles record>
CCCCCCCCCCCCCNC(=O)NNC(=O)c1ccncc1

>  <target of assay>
Mycobacterium avium

>  <outcome measure>
MIC

>  <value prefix>
=

>  <obs value>
125

$$$$
>  <smiles record>
CCCCCCNC(=O)NNC(=O)c1ccncc1

>  <target of assay>
Mycobacterium avium

>  <outcome measure>
MIC

>  <value prefix>
=

>  <obs value>
500

$$$$
>  <smiles record>
CCCCCNc1nnc(-c2ccncc2)o1

>  <target of assay>
Mycobacterium avium

>  <outcome measure>
MIC

>  <value prefix>
>

>  <obs value>
1000

$$$$
>  <smiles record>
CCCCCCCCCCCCCCNc1nnc(-c2ccncc2)o1

>  <target of assay>
Mycobacterium avium

>  <outcome measure>
MIC

>  <value prefix>
=

>  <obs value>
250

$$$$
>  <smiles record>
CCCCCCCCCCCCCNc1nnc(-c2ccncc2)o1

>  <target of assay>
Mycobacterium avium

>  <outcome measure>
MIC

>  <value prefix>
=

>  <obs value>
250

$$$$
>  <smiles record>
CCCCCCCCNC(=O)NNC(=O)c1ccncc1

>  <target of assay>
Mycobacterium avium

>  <outcome measure>
MIC

>  <value prefix>
=

>  <obs value>
250

$$$$

###

# key: entry, value: MIC
System: Mycobacterium avium
assay notes: Antimycobacterial activity against INH/RIF/OFX resistant Mycobacterium avium 330/88 after 14 days
Type: functional
stated conditions: 330/88, 336 h
outcome measure: MIC

>  <smiles record>
CCCCCCCCCCCCCCCNc1nnc(-c2ccncc2)o1

>  <obs value>
250 µM

$$$$
>  <smiles record>
CCCNC(=O)NNC(=O)c1ccncc1

>  <obs value>
250 µM

$$$$
>  <smiles record>
CCCCCCCCCCNc1nnc(-c2ccncc2)o1

>  <obs value>
32 µM

$$$$
>  <smiles record>
CCCCCCCCCCCCCCCCCCNc1nnc(-c2ccncc2)o1

>  <obs value>
500 µM

$$$$
>  <smiles record>
CCCCCNC(=O)NNC(=O)c1ccncc1

>  <obs value>
> 1000 µM

$$$$
>  <smiles record>
CCCCNc1nnc(-c2ccncc2)o1

>  <obs value>
> 1000 µM

$$$$
>  <smiles record>
CCNc1nnc(-c2ccncc2)o1

>  <obs value>
> 1000 µM

$$$$
>  <smiles record>
CCCCCCCNc1nnc(-c2ccncc2)o1

>  <obs value>
500 µM

$$$$
>  <smiles record>
CCCCCCCCCCCCCCCCNC(=O)NNC(=O)c1ccncc1

>  <obs value>
125 µM

$$$$
>  <smiles record>
CCCCCCCCCCCNC(=O)NNC(=O)c1ccncc1

>  <obs value>
125 µM

$$$$
>  <smiles record>
CCCCNC(=O)NNC(=O)c1ccncc1

>  <obs value>
> 1000 µM

$$$$
>  <smiles record>
CCNC(=O)NNC(=O)c1ccncc1

>  <obs value>
1000 µM

$$$$
>  <smiles record>
CCCCCCCCNc1nnc(-c2ccncc2)o1

>  <obs value>
62.5 µM

$$$$
>  <smiles record>
CCCCCCCCCNC(=O)NNC(=O)c1ccncc1

>  <obs value>
250 µM

$$$$
>  <smiles record>
CCCCCCCCCCCNc1nnc(-c2ccncc2)o1

>  <obs value>
500 µM

$$$$

###

assay notes: Selectivity index, ratio of IC50 for human HepG2 cells to MIC for Mycobacterium tuberculosis H37Rv after 14 days
Format: toxicity
stated conditions: read-out: Selectivity Index
# key: entry, value: selectivity ratio at 336 h
outcome measure: selectivity ratio at 336 h

>  <smiles record>
CCNC(=O)NNC(=O)c1ccncc1

>  <outcome measure>
selectivity ratio at 336 h

>  <obs value>
> 2000

$$$$
>  <smiles record>
CCCCNC(=O)NNC(=O)c1ccncc1

>  <outcome measure>
selectivity ratio at 336 h

>  <obs value>
> 375

$$$$
>  <smiles record>
CCCCCCNC(=O)NNC(=O)c1ccncc1

>  <outcome measure>
selectivity ratio at 336 h

>  <obs value>
> 31.3

$$$$
>  <smiles record>
CCCCCCCCCCCNc1nnc(-c2ccncc2)o1

>  <outcome measure>
selectivity ratio at 336 h

>  <obs value>
5.4

$$$$
>  <smiles record>
CCCNC(=O)NNC(=O)c1ccncc1

>  <outcome measure>
selectivity ratio at 336 h

>  <obs value>
> 5000

$$$$
>  <smiles record>
CCCCCNC(=O)NNC(=O)c1ccncc1

>  <outcome measure>
selectivity ratio at 336 h

>  <obs value>
> 500

$$$$
>  <smiles record>
NNC(=O)c1ccncc1

>  <outcome measure>
selectivity ratio at 336 h

>  <obs value>
> 5000

$$$$
>  <smiles record>
CNC(=O)NNC(=O)c1ccncc1

>  <outcome measure>
selectivity ratio at 336 h

>  <obs value>
> 5000

$$$$
>  <smiles record>
CCCCCCCCCCCCNc1nnc(-c2ccncc2)o1

>  <outcome measure>
selectivity ratio at 336 h

>  <obs value>
> 6.25

$$$$

###

assay notes: Selectivity index, ratio of IC50 for human HepG2 cells to MIC for Mycobacterium kansasii 235/80
Assay type: toxicity
stated conditions: read-out: Selectivity Index
# key: entry, value: selectivity ratio

>  <molecule>
CCNC(=O)NNC(=O)c1ccncc1

>  <selectivity ratio>
> 64

$$$$
>  <molecule>
CCCCCNC(=O)NNC(=O)c1ccncc1

>  <selectivity ratio>
> 32

$$$$
>  <molecule>
CCCNC(=O)NNC(=O)c1ccncc1

>  <selectivity ratio>
> 312

$$$$
>  <molecule>
NNC(=O)c1ccncc1 [ISONIAZID]

>  <selectivity ratio>
> 625

$$$$

The origin of these recorded values is ChEMBL document CHEMBL4152223.
